Assay: Pharmacokinetic study in mice
Type: in vivo, CD-1 mice
Settings: mouse, plasma; male CD-1 mice, 1 mg/kg iv; read-out: AUC0-inf
experimental_endpoint: AUC(0-inf)
Put down the number, then write its unit next to it.

1) N#Cc1ccc(OCc2cccc(OC3CCN(Cc4nc5c(F)cc(C(=O)O)cc5n4C[C@@H]4CCO4)CC3)n2)c(F)c1 [Compound 56]	771 ng·h/mL
2) O=C(O)c1ccc2nc(CN3CCC(Oc4cccc(COc5ccc(Cl)cc5F)n4)CC3)n(C[C@@H]3CCO3)c2c1 [Compound 49]	1350 ng·h/mL
3) O=C(O)c1cc(F)c2nc(CN3CCC(Oc4cccc(COc5ccc(Cl)cc5F)n4)CC3)n(C[C@@H]3CCO3)c2c1 [Compound C23]	1140 ng·h/mL

stdin: Read off the recorded AUC(0-inf) for N#Cc1ccc(OCc2cccc(OC3CCN(Cc4nc5ccc(C(=O)O)cc5n4C[C@@H]4CCO4)CC3)n2)c(F)c1 [Compound 55]
stdout: 637 ng·h/mL

###

Biological target: GLP-1R (Homo sapiens)
Experiment: Agonist activity on GLP-1R, HTRF cAMP detection in stably transfected GLP-1R/HEK293 cells
Type: cell-based
Settings: relative to top concentration of reference GLP-1(7-37)
experimental_endpoint: Max activity (%)
# value in %; strip the unit string

Below, each entry is followed by its recorded Max activity result.
1. N#Cc1ccc(OCc2cccc(SC3CCN(Cc4nc5ccc(C(=O)O)cc5n4C[C@@H]4CCO4)CC3)n2)c(F)c1	122.3
2. N#Cc1ccc(COc2cccc(OCC3CCN(Cc4nc5ccc(C(=O)O)cc5n4C[C@@H]4CCO4)CC3)n2)c(F)c1	93.7
3. C#Cc1ccc(OCc2cccc(OC3CCN(Cc4nc5ccc(C(=O)O)cc5n4Cc4cncn4CC)CC3)n2)c(F)c1	101.9

stdin: Consider the molecule `O=C(O)/C=C/c1ccc2nc(CN3CCC(Oc4ccc(F)c(OCc5ccc(Cl)cc5F)n4)CC3)n(C[C@@H]3CCO3)c2c1` and give its recorded Max activity.
stdout: 114.2

###

Assay: Pharmacokinetic study in mice
Assay type: in vivo, CD-1 mice
Details: male CD-1 mice, 5 mg/kg po
The entries below come with measured F values attached.
Express your answer in %, writing the number without its unit.

Look over these answered cases.
1. O=C(O)c1ccc2nc(CN3CCC(Oc4cccc(COc5ccc(Cl)cc5F)n4)CC3)n(C[C@@H]3CCO3)c2c1 [Compound 49]	20.7
2. N#Cc1ccc(OCc2cccc(OC3CCN(Cc4nc5ccc(C(=O)O)cc5n4C[C@@H]4CCO4)CC3)n2)c(F)c1 [Compound 55]	32.7

We now examine a further compound.
stdin: Specify measured F for N#Cc1ccc(COc2cccc(C3CCN(Cc4nc5ccc(C(=O)O)cc5n4C[C@@H]4CCO4)CC3)n2)c(F)c1 [PF-06882961, reference compound] .
stdout: 19.8

###

Target: GLP-1R (Homo sapiens, UniProt P43220)
Sequence (P43220 24-463): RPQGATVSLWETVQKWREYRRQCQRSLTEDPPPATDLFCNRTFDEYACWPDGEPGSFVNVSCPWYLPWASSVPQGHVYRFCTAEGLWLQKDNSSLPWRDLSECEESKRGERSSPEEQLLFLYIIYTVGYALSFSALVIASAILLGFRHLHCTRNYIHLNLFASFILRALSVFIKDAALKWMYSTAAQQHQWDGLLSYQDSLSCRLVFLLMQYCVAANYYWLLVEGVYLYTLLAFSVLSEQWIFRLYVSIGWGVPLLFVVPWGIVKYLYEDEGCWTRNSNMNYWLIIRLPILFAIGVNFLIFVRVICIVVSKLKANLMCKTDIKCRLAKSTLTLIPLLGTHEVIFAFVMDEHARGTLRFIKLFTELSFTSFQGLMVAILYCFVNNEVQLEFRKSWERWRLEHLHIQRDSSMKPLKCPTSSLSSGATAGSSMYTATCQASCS
Assay: Agonist activity on GLP-1R, HTRF cAMP detection in stably transfected GLP-1R/HEK293 cells
Assay type: cell-based
Conditions: relative to top concentration of reference GLP-1(7-37)
Below: a set of entries, each annotated with reported Max activity.
Numbers only; they are read as %.

1. CCn1cncc1Cn1c(CN2CCC(Oc3ccc(F)c(COc4ccc(C#N)cc4F)n3)CC2)nc2ccc(C(=O)O)cc21 [Compound 3]	128.3
2. N#Cc1ccc(COc2cccc(OC3CCN(Cc4nc5ccc(C(=O)O)cc5n4C[C@@H]4CCO4)CC3)c2)c(F)c1 [Compound S5]	125.2
3. CCn1cncc1Cn1c(CN2CCC(Oc3ccc(F)c(OCc4ccc(Cl)cc4F)n3)CC2)nc2ccc(C(=O)O)cc21 [Compound C11]	114.8
4. N#Cc1ccc(COc2cccc(OC3CCN(Cc4nc5ccc(C(=O)O)cc5n4C[C@@H]4CCO4)CC3)n2)c(F)c1 [Compound S2]	139.9

stdin: Determine from records and report Max activity for N#CCC1(Cn2c(CN3CCC(Oc4ccc(F)c(COc5ccc(C#N)cc5F)n4)CC3)nc3ccc(C(=O)O)cc32)CC1 [Compound 135]
stdout: 109.6

stdin: Give reported Max activity value for N#Cc1ccc(OCc2cccc(OC3CCN(Cc4nc5ccc(C(=O)O)cc5n4Cc4cncn4CC4CC4)CC3)n2)c(F)c1 [Compound C33]
stdout: 99.1
